protocol-description: Clinical PK of Compound A tablets, once daily, fasted subjects
Type: in vivo, human
details: human, plasma; single 200 mg dose, oral tablets, fasted subjects; read-out: Maximum plasma concentration (Cmax)
property-label: Cmax

item-smiles: Cc1ccc(NC(=O)c2ccnc(C(F)(F)F)c2)cc1-c1cc(OCCO)nc(N2CCOCC2)c1
property-label: Cmax
endpoint-result: 889 ng/mL

====

protocol-description: Clinical PK of Compound A tablets, once daily, fasted subjects
Format: in vivo, human
details: human, plasma, oral; in patients
property-label: half-life

molecule: Cc1ccc(NC(=O)c2ccnc(C(F)(F)F)c2)cc1-c1cc(OCCO)nc(N2CCOCC2)c1 [Compound A]
endpoint-result: 1380 to 1440 min

====

Test system: HuP-T4
protocol-description: Proliferation, CellTiter-Glo 72 h, HuP-T4
Type: cell-based
details: Homo sapiens, HuP-T4, Pancreas, BRAF WT, KRAS G12V

item-smiles: Cc1ccc(NC(=O)c2ccnc(C(F)(F)F)c2)cc1-c1cc(OCCO)nc(N2CCOCC2)c1
IC50: 650 nM

====

Test system: A375/NRAS Q61K
protocol-description: Anti-proliferative effect in mechanistic A375 models, A375/NRAS Q61K
Type: cell-based
details: Homo sapiens, A-375, doxycycline-induced, 72 hours

molecule: CCCS(=O)(=O)Nc1ccc(F)c(C(=O)c2c[nH]c3ncc(-c4ccc(Cl)cc4)cc23)c1F [Vemurafenib]
system-tested: A375/NRAS Q61K
unit-name: µM
IC50: 9.38

molecule: Cn1cnc2c(F)c(Nc3ccc(Br)cc3Cl)c(C(=O)NOCCO)cc21 [Selumetinib]
system-tested: A375/NRAS Q61K
unit-name: µM
IC50: 5.5

molecule: Cc1ccc(NC(=O)c2ccnc(C(F)(F)F)c2)cc1-c1cc(OCCO)nc(N2CCOCC2)c1 [Compound A]
system-tested: A375/NRAS Q61K
unit-name: µM
IC50: 0.95

====

protocol-description: Clinical PK of Compound A tablets, once daily, fasted subjects
Type: in vivo, human
details: human, plasma, oral; day 1 of dosing, 200 mg; read-out: Mean plasma exposure over the dose interval of 24 hours (AUCtau)

molecule: Cc1ccc(NC(=O)c2ccnc(C(F)(F)F)c2)cc1-c1cc(OCCO)nc(N2CCOCC2)c1 [Compound A]
AUC (ng·h/mL): 10000

====

System: PSN1
protocol-description: Proliferation, CellTiter-Glo 72 h, PSN1
Assay type: cell-based
details: Homo sapiens, PSN1, Pancreas, BRAF WT, KRAS G12R

compound: Cc1ccc(NC(=O)c2ccnc(C(F)(F)F)c2)cc1-c1cc(OCCO)nc(N2CCOCC2)c1 [Compound A]
IC50: 680 nM

====

Tested on: HCC827
protocol-description: Proliferation, CellTiter-Glo 72 h, HCC827
Assay type: cell-based
details: Homo sapiens, HCC827, NSCLC, BRAF WT, RAS WT

compound: Cc1ccc(NC(=O)c2ccnc(C(F)(F)F)c2)cc1-c1cc(OCCO)nc(N2CCOCC2)c1 [Compound A]
system-tested: HCC827
IC50: > 20 µM
